Each entry below lists one item and its recorded inhibition value.
study-target: UniProt P29275
Sequence (P29275 whole entry): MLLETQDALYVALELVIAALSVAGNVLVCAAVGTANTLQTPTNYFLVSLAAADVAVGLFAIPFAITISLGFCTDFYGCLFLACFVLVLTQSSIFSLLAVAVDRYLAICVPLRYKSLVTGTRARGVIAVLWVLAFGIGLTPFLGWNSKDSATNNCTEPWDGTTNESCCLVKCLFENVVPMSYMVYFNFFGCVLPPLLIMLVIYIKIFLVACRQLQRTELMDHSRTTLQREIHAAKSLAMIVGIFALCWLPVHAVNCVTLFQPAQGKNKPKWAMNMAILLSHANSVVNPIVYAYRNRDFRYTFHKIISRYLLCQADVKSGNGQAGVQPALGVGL
assay-name: Displacement of [3H]DPCPX from human adenosine A2B receptor expressed in HEK-293 cells at 1 uM
Format: cell-based
condition-summary: HEK293

For orientation, consider the following solved cases.
COc1ccc(-c2cc(NC(C)=O)nc(-c3ccc(OC)c(OC)c3)n2)cc1OC: 2%
COc1ccc(/C=C/c2cc(NC(C)=O)nc(/C=C/c3ccc(OC)cc3)n2)cc1: 2%
COc1cc(-c2cc(NC(C)=O)nc(-c3cc(OC)c(OC)c(OC)c3)n2)cc(OC)c1OC: 1%

So the reported inhibition for "COc1ccccc1-c1cc(NC(C)=O)nc(-c2ccccc2OC)n1" , on UniProt P29275, turned out to be 7%

So the reported inhibition for "COc1ccc(OC)c(-c2cc(NC(C)=O)nc(-c3cc(OC)ccc3OC)n2)c1" , on UniProt P29275, turned out to be 1%

So the reported inhibition for "CCOc1ccc(-c2cc(NC(C)=O)nc(-c3ccc(OCC)cc3)n2)cc1" , on UniProt P29275, turned out to be 1%

So the reported inhibition for "CC(=O)Nc1cc(-c2ccccc2)nc(-c2ccccc2)n1" , on UniProt P29275, turned out to be 22%

So the reported inhibition for "COc1ccc(-c2cc(NC(C)=O)nc(-c3ccc(OC)cc3OC)n2)c(OC)c1" , on UniProt P29275, turned out to be 7%

So the reported inhibition for "COc1cccc(OC)c1-c1cc(NC(C)=O)nc(-c2c(OC)cccc2OC)n1" , on UniProt P29275, turned out to be 3%

So the reported inhibition for "COc1ccc(-c2cc(NC(C)=O)nc(-c3ccc(OC)cc3)n2)cc1" , on UniProt P29275, turned out to be 2%
